- TGT: HLA-B*15:17
- ASSAY_REMARKS: IEDB peptide-MHC binding, purified MHC/competitive/fluorescence; filed as Kd, often an IC50 or EC50 that approximates it; bounds were set here for any values at or beyond the usual limits of such assays
- ASSAY_CONTEXT: source organism: Orthohantavirus tulaense
ENDPOINT_NAME: Kd

Q) Form field: reported Kd of SLMSRVVYK
A) ≥ 20 µM

* * *

- TGT: HLA-C*01:02
- ASSAY_REMARKS: IEDB peptide-MHC binding, purified MHC/direct/fluorescence; filed as Kd, often an IC50 or EC50 that approximates it; bounds were set here for any values at or beyond the usual limits of such assays
- ASSAY_CONTEXT: source organism: Homo sapiens
pKd: −log10 of the molar value.
ENDPOINT_NAME: pKd

Q) Form field: reported pKd of HLSSSQLQSL
A) ≥ 10.00

* * *

- TGT: HLA-B*27:03
- ASSAY_REMARKS: IEDB peptide-MHC binding, purified MHC/competitive/fluorescence; filed as Kd, often an IC50 or EC50 that approximates it; bounds were set here for any values at or beyond the usual limits of such assays
- ASSAY_CONTEXT: source organism: Burkholderia mallei SAVP1
pKd: −log10 of the molar value.
For each of the sequences below, state its pKd.

Q) Look up pKd with HLA-B*27:03 for this sequence: RLDARLQVL
A) ≤ 4.70

Q) Look up pKd with HLA-B*27:03 for this sequence: RFNAIWFNH
A) ≤ 4.70

* * *

- TGT: HLA-A*02:02
- ASSAY_REMARKS: IEDB peptide-MHC binding, purified MHC/competitive/radioactivity; filed as Kd, often an IC50 or EC50 that approximates it; bounds were set here for any values at or beyond the usual limits of such assays
- ASSAY_CONTEXT: source organism: Lassa virus Josiah
For each of the sequences below, state its pKd.
Note: pKd values are expressed as the negative base-10 logarithm of concentration in M.

Q) Form field: reported pKd of GLVGLVTFLL
A) 6.72

Q) Form field: reported pKd of YCSNIKLQVV
A) 5.91

Q) Form field: reported pKd of GLYNFATCGL
A) 8.29

* * *

- TGT: HLA-B*15:01
- ASSAY_REMARKS: IEDB peptide-MHC binding, purified MHC/direct/fluorescence; filed as Kd, often an IC50 or EC50 that approximates it; bounds were set here for any values at or beyond the usual limits of such assays
- ASSAY_CONTEXT: source organism: Corynebacterium efficiens
pKd: −log10 of the molar value.
ENDPOINT_NAME: pKd

Q) Look up pKd with HLA-B*15:01 for this sequence: ITWETPMIW
A) ≤ 4.70

* * *

- TGT: HLA-A*69:01
- ASSAY_REMARKS: IEDB peptide-MHC binding, purified MHC/competitive/fluorescence; filed as Kd, often an IC50 or EC50 that approximates it; bounds were set here for any values at or beyond the usual limits of such assays
- ASSAY_CONTEXT: source organism: Cryptosporidium parvum Iowa II
ENDPOINT_NAME: Kd

Q) Form field: reported Kd of FLYPSWSLY
A) ≥ 20 µM

* * *

For each of the sequences below, state its pKd.
- TGT: HLA-B*53:01
- ASSAY_REMARKS: IEDB peptide-MHC binding, purified MHC/competitive/radioactivity; filed as Kd, often an IC50 or EC50 that approximates it; bounds were set here for any values at or beyond the usual limits of such assays
- ASSAY_CONTEXT: source organism: Dengue virus 1 Brazil/97-11/1997
Note: pKd values are expressed as the negative base-10 logarithm of concentration in M.

Q) Form field: reported pKd of LAVSGVYPM
A) 6.07

Q) Form field: reported pKd of LPVLLGSFGC
A) 6.93

* * *

- TGT: HLA-B*39:01
- ASSAY_REMARKS: IEDB peptide-MHC binding, purified MHC/competitive/fluorescence; filed as Kd, often an IC50 or EC50 that approximates it; bounds were set here for any values at or beyond the usual limits of such assays
- ASSAY_CONTEXT: source organism: Bacillus thuringiensis serovar israelensis ATCC 35646
pKd: −log10 of the molar value.
ENDPOINT_NAME: pKd

Q) Form field: reported pKd of ITMYVAFEQ
A) ≤ 4.70

* * *

- TGT: HLA-A*02:19
- ASSAY_REMARKS: IEDB peptide-MHC binding, purified MHC/direct/fluorescence; filed as Kd, often an IC50 or EC50 that approximates it; bounds were set here for any values at or beyond the usual limits of such assays
- ASSAY_CONTEXT: source organism: Orthohantavirus tulaense
ENDPOINT_NAME: Kd

Q) Look up Kd with HLA-A*02:19 for this sequence: SLMSRVVYK
A) ≥ 20 µM

* * *

- TGT: HLA-B*27:05
- ASSAY_REMARKS: IEDB peptide-MHC binding, purified MHC/direct/fluorescence; filed as Kd, often an IC50 or EC50 that approximates it; bounds were set here for any values at or beyond the usual limits of such assays
- ASSAY_CONTEXT: source organism: Mammarenavirus lassaense
ENDPOINT_NAME: Kd (nM)
Give a bare numeral; the unit nM is implied.

Q) Form field: reported Kd of RRLKAEAQM
A) 53

* * *

- TGT: HLA-A*01:01
- ASSAY_REMARKS: IEDB peptide-MHC binding, purified MHC/direct/fluorescence; filed as Kd, often an IC50 or EC50 that approximates it; bounds were set here for any values at or beyond the usual limits of such assays
- ASSAY_CONTEXT: source organism: Vibrio vulnificus YJ016
pKd: −log10 of the molar value.
ENDPOINT_NAME: pKd

Q) Form field: reported pKd of LLRRRPYPL
A) ≤ 4.70

* * *

- TGT: HLA-A*69:01
- ASSAY_REMARKS: IEDB peptide-MHC binding, purified MHC/direct/fluorescence; filed as Kd, often an IC50 or EC50 that approximates it; bounds were set here for any values at or beyond the usual limits of such assays
- ASSAY_CONTEXT: source organism: Mycobacterium tuberculosis
ENDPOINT_NAME: Kd (nM)
Give a bare numeral; the unit nM is implied.

Q) Form field: reported Kd of YLYDETQDV
A) 1240

* * *

- TGT: HLA-B*18:01
- ASSAY_REMARKS: IEDB peptide-MHC binding, purified MHC/direct/fluorescence; filed as Kd, often an IC50 or EC50 that approximates it; bounds were set here for any values at or beyond the usual limits of such assays
- ASSAY_CONTEXT: source organism: Bacillus anthracis
ENDPOINT_NAME: Kd (nM)
Give a bare numeral; the unit nM is implied.

Q) Form field: reported Kd of WFREDRSPV
A) 145

* * *

- TGT: HLA-B*18:01
- ASSAY_REMARKS: IEDB peptide-MHC binding, purified MHC/direct/fluorescence; filed as Kd, often an IC50 or EC50 that approximates it; bounds were set here for any values at or beyond the usual limits of such assays
- ASSAY_CONTEXT: source organism: Yellow fever virus
ENDPOINT_NAME: Kd (nM)
Give a bare numeral; the unit nM is implied.

Q) Form field: reported Kd of KEVSGVKGF
A) 500

* * *

- TGT: HLA-A*01:01
- ASSAY_REMARKS: IEDB peptide-MHC binding, purified MHC/direct/fluorescence; filed as Kd, often an IC50 or EC50 that approximates it; bounds were set here for any values at or beyond the usual limits of such assays
- ASSAY_CONTEXT: source organism: Aracatuba virus
ENDPOINT_NAME: Kd

Q) Form field: reported Kd of YKEPNSIIL
A) ≥ 20 µM

* * *

- TGT: HLA-B*57:01
- ASSAY_REMARKS: IEDB peptide-MHC binding, purified MHC/direct/fluorescence; filed as Kd, often an IC50 or EC50 that approximates it; bounds were set here for any values at or beyond the usual limits of such assays
- ASSAY_CONTEXT: source organism: Camelpox virus M-96
pKd: −log10 of the molar value.
ENDPOINT_NAME: pKd

Q) Look up pKd with HLA-B*57:01 for this sequence: SYVFNFHKY
A) ≤ 4.70

Q) Look up pKd with HLA-B*57:01 for this sequence: NTDAFSREY
A) ≤ 4.70

Q) Look up pKd with HLA-B*57:01 for this sequence: LEYGANYFL
A) ≤ 4.70

* * *

- TGT: HLA-A*24:02
- ASSAY_REMARKS: IEDB peptide-MHC binding, purified MHC/competitive/radioactivity; bounds were set here for any values at or beyond the usual limits of such assays
- ASSAY_CONTEXT: source organism: Homo sapiens
ENDPOINT_NAME: pIC50
Note: pIC50 values are expressed as the negative base-10 logarithm of concentration in M.

Q) Form field: reported pIC50 of SFSTTINYTL
A) 6.10

* * *

- TGT: HLA-B*51:01
- ASSAY_REMARKS: IEDB peptide-MHC binding, purified MHC/competitive/radioactivity; filed as Kd, often an IC50 or EC50 that approximates it; bounds were set here for any values at or beyond the usual limits of such assays
- ASSAY_CONTEXT: source organism: Dengue virus 2 Jamaica/1409/1983
ENDPOINT_NAME: pKd
Note: pKd values are expressed as the negative base-10 logarithm of concentration in M.

Q) Look up pKd with HLA-B*51:01 for this sequence: FPQSNAPIMD
A) 5.38
